Reference source: paper PMC7412453

System: L. brasiliensis promastigotes
Assay: Leishmanicidal activity against L. brasiliensis promastigotes (XTT)
Details: L. brasiliensis SI (selectivity index, cytotoxicity/anti-protozoal activity), RAW cell IC50 / L. brasiliensis IC50
Classification by selectivity ratio at 72 h follows these ranges: Low (below 1), Mid (1 to below 2), High (2 or more)

A selection of reference data follows.
entrysmiles=C=CC(=O)OCc1ccc2c(c1)-c1cc(OC)ccc1OC2(C)C assayedtarget="L. brasiliensis promastigotes" group=High
entrysmiles=COc1ccc2c(c1)-c1cc(C(N)=O)ccc1C(C)(C)O2 assayedtarget="L. brasiliensis promastigotes" group=Low
entrysmiles=COc1ccc2c(c1)-c1cc(CNC(C)C)ccc1C(C)(C)O2 assayedtarget="L. brasiliensis promastigotes" group=Low
entrysmiles=COc1ccc2c(c1)-c1cc(C(=N)NO)ccc1C(C)(C)O2 assayedtarget="L. brasiliensis promastigotes" group=Low
entrysmiles=COc1ccc2c(c1)-c1cc(COC(=O)C(C)C)ccc1C(C)(C)O2 assayedtarget="L. brasiliensis promastigotes" group=Mid
entrysmiles=COc1ccc2c(c1)-c1cc(C(=O)O)ccc1C(C)(C)O2 assayedtarget="L. brasiliensis promastigotes" group=High
entrysmiles=COc1ccc2c(c1)-c1cc(C=O)ccc1C(C)(C)O2 assayedtarget="L. brasiliensis promastigotes" group=Mid
entrysmiles=COc1ccc2c(c1)-c1cc(CNCC(C)C)ccc1C(C)(C)O2 assayedtarget="L. brasiliensis promastigotes" group=Low

State the band of COc1ccc2c(c1)-c1cc(C(C)=O)ccc1C(C)(C)O2
Mid

Please indicate the class for COc1ccc2c(c1)-c1cc(COC(=O)CC(C)C)ccc1C(C)(C)O2 based on its selectivity ratio at 72 h.
High

Kindly state the category for this molecule: CCCC(=O)OCc1ccc2c(c1)-c1cc(OC)ccc1OC2(C)C
Mid

Form: Item = COc1ccc2c(c1)-c1cc(COC(=O)c3ccco3)ccc1C(C)(C)O2 ; Class = ?
High

Each molecule maps to one class by selectivity ratio at 72 h. Which class for COc1ccc2c(c1)-c1cc(COC(C)=O)ccc1C(C)(C)O2 ?
Mid

Exercise: read the entry COc1ccc2c(c1)-c1cc(CCl)ccc1C(C)(C)O2 and state which class it falls under.
High

Form: Item = COc1ccc2c(c1)-c1cc(COC(=O)c3ccccc3)ccc1C(C)(C)O2 ; Class = ?
Mid

For COC(=O)c1ccc2c(c1)-c1cc(OC)ccc1OC2(C)C , which selectivity ratio at 72 h bin applies?
High

---

Measured IC50 at 72 h, listed per entry.
Assay: Cytotoxicity in RAW cells (Resazurin)
Format: cell-based, murine
Details: mouse
Experimental: Evaluations against RAW cells: The Raw 264.7 murine macrophage cell line was purchased from the American Type Culture Collection (ATCC-TIB71). The cells were maintained in DMEM-HG medium supplemented with 10% fetal bovine serum, 100 U/mL of penicillin and 100 μg/mL of streptomycin, and sodium bicarbonate (2.2 g/L) in humidified atmosphere at 37 °C with 5% CO2. […] The IC50 values were assessed using a fluorometric reader (540 nm excitation, 590 nm emission) and the Gen5 software. […]
Your answer is read as µM, so omit the unit and give the number.

// known answers, use as guide
compound="COc1ccc2c(c1)-c1cc(COC(=O)C3CCCCC3)ccc1C(C)(C)O2 [4i]" unitabbrev=µM numericresult=51.3
compound="COc1ccc2c(c1)-c1cc(COC(=O)CC(C)(C)C)ccc1C(C)(C)O2 [4f]" unitabbrev=µM numericresult=19
compound="COc1ccc2c(c1)-c1cc(C(=O)O)ccc1C(C)(C)O2 [5c]" unitabbrev=µM numericresult=246
compound="COc1ccc2c(c1)-c1cc(COC(=O)CCC3CCCC3)ccc1C(C)(C)O2 [4h]" unitabbrev=µM numericresult=50.7
compound="COc1ccc2c(c1)-c1cc(CNC(C)C)ccc1C(C)(C)O2 [3f]" unitabbrev=µM numericresult=29.5

Kindly review the next compound as well.
Given COc1ccc2c(c1)-c1cc(C=O)ccc1C(C)(C)O2 [5a] , state its recorded IC50 at 72 h.
38.8
